Ref: patent US20110294738A1

Here the recorded Inhibition of Maximal Response is given for each entry.
Biological target: PTHR1 receptor
Sequence (P25961 whole entry): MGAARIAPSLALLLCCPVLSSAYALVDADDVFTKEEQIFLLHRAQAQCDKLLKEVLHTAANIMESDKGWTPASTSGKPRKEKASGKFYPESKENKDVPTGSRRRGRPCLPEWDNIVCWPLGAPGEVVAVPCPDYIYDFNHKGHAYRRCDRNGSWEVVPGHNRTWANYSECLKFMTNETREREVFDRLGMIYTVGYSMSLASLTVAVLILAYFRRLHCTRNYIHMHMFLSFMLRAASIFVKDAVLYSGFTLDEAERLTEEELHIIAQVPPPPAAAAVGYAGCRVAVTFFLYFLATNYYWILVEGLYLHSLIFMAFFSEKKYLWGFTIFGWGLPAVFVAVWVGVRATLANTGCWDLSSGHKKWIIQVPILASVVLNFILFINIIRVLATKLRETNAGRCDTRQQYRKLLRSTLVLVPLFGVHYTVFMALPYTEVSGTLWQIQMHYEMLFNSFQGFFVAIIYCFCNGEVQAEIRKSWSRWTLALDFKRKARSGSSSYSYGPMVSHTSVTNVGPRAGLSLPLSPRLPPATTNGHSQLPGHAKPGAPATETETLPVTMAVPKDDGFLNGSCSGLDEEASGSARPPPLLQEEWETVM
* marks the point of attachment. Palmitoyl = CCCCCCCCCCCCCCCC(=O)*
Please respond with the number in % and leave the unit unwritten.

Palmitoyl-TNAGRSDTAQQYRKLL-NH2 (SMILES CCCCCCCCCCCCCCCC(=O)N[C@H](C(=O)N[C@@H](CC(N)=O)C(=O)N[C@@H](C)C(=O)NCC(=O)N[C@@H](CCCNC(=N)N)C(=O)N[C@@H](CO)C(=O)N[C@@H](CC(=O)O)C(=O)N[C@H](C(=O)N[C@@H](C)C(=O)N[C@@H](CCC(N)=O)C(=O)N[C@@H](CCC(N)=O)C(=O)N[C@@H](Cc1ccc(O)cc1)C(=O)N[C@@H](CCCNC(=N)N)C(=O)N[C@@H](CCCCN)C(=O)N[C@@H](CC(C)C)C(=O)N[C@@H](CC(C)C)C(N)=O)[C@@H](C)O)[C@@H](C)O) [Compound 78]	-29.2

Can you look up the measured Inhibition of Maximal Response of Palmitoyl-NGEVQAEIKKSW-NH2 (SMILES CCCCCCCCCCCCCCCC(=O)N[C@@H](CC(N)=O)C(=O)NCC(=O)N[C@@H](CCC(=O)O)C(=O)N[C@H](C(=O)N[C@@H](CCC(N)=O)C(=O)N[C@@H](C)C(=O)N[C@@H](CCC(=O)O)C(=O)N[C@H](C(=O)N[C@@H](CCCCN)C(=O)N[C@@H](CCCCN)C(=O)N[C@@H](CO)C(=O)N[C@@H](Cc1c[nH]c2ccccc12)C(N)=O)[C@@H](C)CC)C(C)C) [Compound 99] for me?
17.5
